Test system: K4 kissing-loop RNA reporter;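 further: bound reporter read as fluorescence of individual clusters on recovered sequencing chips by microscopy, with normalized cluster intensities fitted with a binding model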
Experiment: apparent KD of K4 kissing-loop reporter; higher = weaker reporter binding
Settings: Eterna round: R107; input ligand: tryptophan 2.4 mM
Field: apparent KD of K4 kissing-loop reporter. Provide a value for each of the sequences that follow.
Numbers only, in nM.

The cases that follow already have their apparent KD of K4 kissing-loop reporter on record.
CAUUCAGUGAUGUUGGAAGGCGAGCGGGAUACCAGCGGAGACUCACGCCCUUGGCAGCCCACAUAUCCCAGGUAGAUAAUAGUUC [Same State - Theophylline A (Freestyle 6)] : 188
AUUUAAUUAACUGAUACCAGACUUUUUGUUUUGAUAAUUACUAGUGAUGUUAGUGUUUCUGUCCCUUGGCAGCAGAAUCUACUUA [JR_ExcTheophyB_Sub018] : 137

Proceeding to the next sequence to report its apparent KD of K4 kissing-loop reporter.
stdin: Report apparent KD of K4 kissing-loop reporter for UGACUGGACUGAAGGAGCGCGAAACUCCUAGUGAUGUUAGGAAUACGAGACAAAGUCUCGACGCAGGUAGGUCGCAGUCUAGUCU [ArgBS 16 #SwitchBubble #StaticStem] please.
stdout: 100
